Where do these numbers come from? They come from paper PMC11784839.

TARGET_OF_ASSAY: UniProt:P10636
Sequence (P10636 623-695 limits assumed): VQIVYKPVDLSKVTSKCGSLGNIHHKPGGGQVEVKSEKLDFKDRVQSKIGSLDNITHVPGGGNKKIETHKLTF
PROTOCOL_DESCRIPTION: MCE Phenols Library screening, tau biosensor cell seeding assay (AvZ)
Assay type: cell-based
RUN_CONDITIONS: Z score, replicate 1
READOUT_NAME: Z repl 1
The answer should be written as a number, with no unit following it.

Below, each entry is followed by its recorded Z repl 1 result.
Give the measured Z repl 1 of COc1cc2c(=O)c(-c3ccc(O)cc3)coc2cc1O [Glycitein] .
0.123

Fill in: Z repl 1 of COc1cc(C(=O)O[C@H]2[C@@H]3C=CO[C@@H](O[C@@H]4O[C@H](CO)[C@@H](O)[C@H](O)[C@H]4O)[C@@H]3[C@@]3(CO)O[C@@H]23)ccc1O [Picroside II] is ___
-0.222

Reported Z repl 1, compound CC(=O)c1ccc(O)c(O)c1 [3',4'-Dihydroxyacetophenone] : ____
-0.338

Please examine the following record next.
Would you mind telling me what Z repl 1 value was observed for COc1cc(O)c2c(=O)c3c(O[C@@H]4O[C@H](CO)[C@@H](O)[C@H](O)[C@H]4O)ccc(O)c3oc2c1 [Swertianolin] ?
-0.114
